Source: paper PMC5700166

Provide the reported binding signal of each item.
# system.name: GST-Co-NF-kB (Capsaspora owczarzaki, UniProt F1ARL5 200-546)
# Sequence: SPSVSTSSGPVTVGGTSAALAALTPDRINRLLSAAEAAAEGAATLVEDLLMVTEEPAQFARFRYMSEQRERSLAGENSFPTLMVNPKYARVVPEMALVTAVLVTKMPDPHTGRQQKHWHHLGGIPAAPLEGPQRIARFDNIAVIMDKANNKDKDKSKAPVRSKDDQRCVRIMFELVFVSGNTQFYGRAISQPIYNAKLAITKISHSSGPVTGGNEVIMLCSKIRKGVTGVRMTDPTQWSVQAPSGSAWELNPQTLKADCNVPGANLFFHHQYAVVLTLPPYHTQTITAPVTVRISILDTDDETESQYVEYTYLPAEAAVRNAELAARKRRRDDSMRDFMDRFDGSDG
# test.details: protein-binding microarray (PBM); PBM: ~300 nM protein, 6 mM HEPES pH 7.8, 80 mM KCl, 0.5 mM EDTA, 0.5 mM EGTA, 6% glycerol, 35 ng/ul poly-dIdC, 1% milk, 1 h, room temperature; high values mean tight binding
# condition.notes: dsDNA, one strand shown
// return numeric value only (unit: z-score, not printed)

Record summary for CCGATTAACATCAGCTTGGGAAATGATGTTAATCGGGTCTTGATTCGCTTGACGCTGCTG : reported binding signal = 2.33

Record summary for CCGATTAACATCAGGGGAATCCATGATGTTAATCGGGTCTTGATTCGCTTGACGCTGCTG : reported binding signal = 5.44

Record summary for CCGATTAACATCAATTTTCCCCCTGATGTTAATCGGGTCTTGATTCGCTTGACGCTGCTG : reported binding signal = 12

Record summary for CCGATTAACATCAGAGTTCCCCCTGATGTTAATCGGGTCTTGATTCGCTTGACGCTGCTG : reported binding signal = 8.96

Record summary for CCGATTAACATCACCGGGAATTCTGATGTTAATCGGGTCTTGATTCGCTTGACGCTGCTG : reported binding signal = 5.5

Record summary for CCGATTAACATCACGGGGATTTATGATGTTAATCGGGTCTTGATTCGCTTGACGCTGCTG : reported binding signal = 4.67

Record summary for CCGATTAACATCAATTTCCCGTATGATGTTAATCGGGTCTTGATTCGCTTGACGCTGCTG : reported binding signal = 3.1

Record summary for CCGATTAACATCAGGGTATTCCATGATGTTAATCGGGTCTTGATTCGCTTGACGCTGCTG : reported binding signal = 1.19

Record summary for CCGATTAACATCAAACTTTTCCCTGATGTTAATCGGGTCTTGATTCGCTTGACGCTGCTG : reported binding signal = 4.78

====

# system.name: GST-Dm-Relish (Drosophila melanogaster, UniProt Q94527 99-473)
# Sequence: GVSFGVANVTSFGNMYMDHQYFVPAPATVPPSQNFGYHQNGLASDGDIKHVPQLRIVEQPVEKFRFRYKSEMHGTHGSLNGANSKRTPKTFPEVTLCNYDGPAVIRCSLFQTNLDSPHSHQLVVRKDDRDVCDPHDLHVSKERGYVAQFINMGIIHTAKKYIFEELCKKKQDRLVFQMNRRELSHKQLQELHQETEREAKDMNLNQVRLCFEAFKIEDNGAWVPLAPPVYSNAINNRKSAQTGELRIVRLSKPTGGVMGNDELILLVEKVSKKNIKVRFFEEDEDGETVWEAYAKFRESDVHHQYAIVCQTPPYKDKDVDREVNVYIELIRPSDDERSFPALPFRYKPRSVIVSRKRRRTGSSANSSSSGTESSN
# test.details: protein-binding microarray (PBM); PBM: ~300 nM protein, 6 mM HEPES pH 7.8, 80 mM KCl, 0.5 mM EDTA, 0.5 mM EGTA, 6% glycerol, 35 ng/ul poly-dIdC, 1% milk, 1 h, room temperature; Ap Aiptasia and Nv Nematostella (sea anemones) / Co Capsaspora / Aq Amphimedon (sponge) / Dm Drosophila / Hu human; RHD is the Rel homology domain; high values mean tight binding
# condition.notes: dsDNA, one strand shown
Provide the reported binding signal of each item.
// return numeric value only (unit: z-score, not printed)

Record summary for CCGATTAACATCAAACTTTCCCATGATGTTAATCGGGTCTTGATTCGCTTGACGCTGCTG : reported binding signal = 1.39

Record summary for CCGATTAACATCAATTTTTCCCGTGATGTTAATCGGGTCTTGATTCGCTTGACGCTGCTG : reported binding signal = 2.16

Record summary for CCGATTAACATCAGAGAAGTCCCTGATGTTAATCGGGTCTTGATTCGCTTGACGCTGCTG : reported binding signal = 4.44

Record summary for CCGATTAACATCAGCCCGGGAAATGATGTTAATCGGGTCTTGATTCGCTTGACGCTGCTG : reported binding signal = 1.04

Record summary for CCGATTAACATCAAAAACTACCCTGATGTTAATCGGGTCTTGATTCGCTTGACGCTGCTG : reported binding signal = 5.43
